Here we list compounds with their recorded MIC when tested on E. coli ATCC 25922.
observable: MIC

>>> result("C=CCN(Cc1ccc(O)c2c1C[C@H]1C[C@H]3[C@H](N(C)C)C(O)=C(C(N)=O)C(=O)[C@@]3(O)C(O)=C1C2=O)C(=O)OC [F]")
"> 8 µg/mL"
>>> result("CC(=O)c1cccc2c1C[C@H]1C[C@H]3[C@H](N(C)C)C(O)=C(C(N)=O)C(=O)[C@@]3(O)C(O)=C1C2=O [E]")
"4 to 8 µg/mL"
>>> result("CN(C)[C@@H]1C(O)=C(C(N)=O)C(=O)[C@@]2(O)C(O)=C3C(=O)c4c(O)ccc(CNOCC(F)F)c4C[C@H]3C[C@@H]12 [DX]")
"4 to 8 µg/mL"
>>> result("CN(C)[C@@H]1C(O)=C(C(N)=O)C(=O)[C@@]2(O)C(O)=C3C(=O)c4c(O)ccc(CN5OCCC5=N)c4C[C@H]3C[C@@H]12 [EC]")
"> 8 µg/mL"
>>> result("CN(C)[C@@H]1C(O)=C(C(N)=O)C(=O)[C@@]2(O)C(O)=C3C(=O)c4c(O)ccc(-c5nccs5)c4C[C@H]3C[C@@H]12 [L]")
"< 4 µg/mL"
>>> result("CC(=O)c1cccc2c1C[C@H]1C[C@H]3[C@@H](N(C)C)C(O)=C(C(N)=O)C(=O)[C@@]3(O)C(O)=C1C2=O [D]")
"> 8 µg/mL"
>>> result("CCO/N=C(/CCN(C)C)c1ccc(O)c2c1C[C@H]1C[C@H]3[C@@H](N(C)C)C(O)=C(C(N)=O)C(=O)[C@@]3(O)C(O)=C1C2=O [AN]")
"< 4 µg/mL"
>>> result("CCON(C)Cc1ccc(O)c2c1C[C@H]1C[C@H]3[C@H](N(C)C)C(O)=C(C(N)=O)C(=O)[C@@]3(O)C(O)=C1C2=O [AE]")
"4 to 8 µg/mL"
>>> result("CON(C)Cc1ccc2c(c1O)C(=O)C1=C(O)[C@]3(O)C(=O)C(C(N)=O)=C(O)[C@@H](N(C)C)[C@@H]3C[C@@H]1C2 [GL]")
"> 8 µg/mL"
>>> result("CN(C)[C@H]1C(O)=C(C(N)=O)C(=O)[C@@]2(O)C(O)=C3C(=O)c4c(O)ccc(CNOCC(F)(F)F)c4C[C@H]3C[C@@H]12 [EA]")
"> 8 µg/mL"
>>> result("CN(C)[C@@H]1C(O)=C(C(N)=O)C(=O)[C@@]2(O)C(O)=C3C(=O)c4cccc(-c5ncccn5)c4C[C@H]3C[C@@H]12 [S]")
"> 8 µg/mL"
>>> result("CN(C)[C@@H]1C(O)=C(C(N)=O)C(=O)[C@@]2(O)C(O)=C3C(=O)c4c(O)ccc(CNOC(C)(C)C)c4C[C@H]3C[C@@H]12 [AB]")
"4 to 8 µg/mL"
>>> result("CCO/N=C(\\C)c1cc(CNCC(C)(C)C)c(O)c2c1C[C@H]1C[C@H]3[C@H](N(C)C)C(O)=C(C(N)=O)C(=O)[C@@]3(O)C(O)=C1C2=O [N]")
"< 4 µg/mL"
>>> result("C/C(=N\\OC(C)(C)C)c1cc(N)c(O)c2c1C[C@H]1C[C@H]3[C@H](N(C)C)C(O)=C(C(N)=O)C(=O)[C@@]3(O)C(O)=C1C2=O [Q]")
"4 to 8 µg/mL"
>>> result("CON(C)Cc1ccc(O)c2c1C[C@H]1C[C@H]3[C@H](N(C)C)C(O)=C(C(N)=O)C(=O)[C@@]3(O)C(O)=C1C2=O [P]")
"4 to 8 µg/mL"
>>> result("CN(C)[C@H]1C(O)=C(C(N)=O)C(=O)[C@@]2(O)C(O)=C3C(=O)c4cccc(-c5ncccn5)c4C[C@H]3C[C@@H]12 [H]")
"> 8 µg/mL"
>>> result("CN(C)[C@@H]1C(O)=C(C(N)=O)C(=O)[C@@]2(O)C(O)=C3C(=O)c4c(O)ccc(-c5ccc[nH]5)c4C[C@H]3C[C@@H]12 [T]")
"< 4 µg/mL"
>>> result("CN(C)[C@@H]1C(O)=C(C(N)=O)C(=O)[C@@]2(O)C(O)=C3C(=O)c4c(O)ccc(CN5CCCCO5)c4C[C@H]3C[C@@H]12 [DR]")
"4 to 8 µg/mL"
>>> result("CN(C)[C@@H]1C(O)=C(C(N)=O)C(=O)[C@@]2(O)C(O)=C3C(=O)c4c(O)ccc(CNOCC(F)(F)F)c4C[C@H]3C[C@@H]12 [DZ]")
"4 to 8 µg/mL"
>>> result("CN(C)[C@@H]1C(O)=C(C(N)=O)C(=O)[C@@]2(O)C(O)=C3C(=O)c4c(O)ccc(/C=N/NC(C)(C)C)c4C[C@H]3C[C@@H]12 [X]")
"< 4 µg/mL"
>>> result("CC(C)ONCc1ccc(O)c2c1C[C@H]1C[C@H]3[C@H](N(C)C)C(O)=C(C(N)=O)C(=O)[C@@]3(O)C(O)=C1C2=O [DV]")
"4 to 8 µg/mL"
>>> result("CN(C)[C@@H]1C(O)=C(C(N)=O)C(=O)[C@@]2(O)C(O)=C3C(=O)c4c(O)ccc(CNOCCF)c4C[C@H]3C[C@@H]12 [DW]")
"< 4 µg/mL"
>>> result("CC1CCN(Cc2cccc3c2C[C@H]2C[C@H]4[C@@H](N(C)C)C(O)=C(C(N)=O)C(=O)[C@@]4(O)C(O)=C2C3=O)CC1 [G]")
"4 to 8 µg/mL"
>>> result("CO/N=C/c1cc(N(C)C)c2c(c1O)C(=O)C1=C(O)[C@]3(O)C(=O)C(C(N)=O)=C(O)[C@@H](N(C)C)[C@@H]3C[C@@H]1C2 [V]")
"> 8 µg/mL"
